Below, each of the molecules is paired with its reported log10 of TGI value.
- System: ACHN renal
- assay-name: NCI tumour cell line growth inhibition, 48 h
# values: log10(TGI), units µM

Here is how some molecules turned out for log10 of TGI.
Look up log10 of TGI for this molecule: COC1(OC)CCN(Cc2ccccc2)C1=O
1.29

// same read-out, input: CCCCCN1C(=O)C(Cc2ccccc2)N=C(c2ccc(O)cc2)c2cc(Cl)ccc21 (centres undefined)
1.41

// same read-out, input: CC(=O)OC(COc1ccc2c(c1)[n+]([O-])nc(N)[n+]2[O-])CN1CCCCC1 (centres undefined)
1.59

// same read-out, input: CCOC(=O)c1sc2nc(SC)nc3c2c1NC(=O)CN3c1ccc(F)cc1
1.97

New cases:
Look up log10 of TGI for this molecule: COc1cccc2nc(Nc3cccc(NC(=O)c4ccc(N5CCN(C)CC5)c(C(F)(F)F)c4)c3)ccc12
0.66

// same read-out, input: CN(C)CCC(=O)[C@@]1(O)CC[C@H]2[C@@H]3CC=C4C[C@@H](O)CC[C@]4(C)[C@H]3CC[C@@]21C
1.47

// same read-out, input: c1ccc(-c2cc3nc4ccccc4nc3cc(-c3ccccc3)[nH][nH]2)cc1
1.89

// same read-out, input: CC1(C)CC[C@]23CC[C@]4(C)[C@H](CC[C@@H]5[C@@]6(C)CCCNC(C)(C)[C@@H]6CC[C@]54C)[C@H]2[C@H]1OC3
0.49

// same read-out, input: CCCCCc1cc(/C=C2/N=C(c3ccc[nH]3)C=C2OC)[nH]c1C
-0.95

----------
- System: MALME-3M melanoma
- assay-name: NCI tumour cell line growth inhibition, 48 h; in the data active = GI50 below about 0.43 µM; inactive = the rest
Please reply with one of these outcomes: true (1) = active, false (0) = inactive

Before answering, review these 3 worked examples.
Test call for this molecule, please: CC[C@]12C=CCN3CC[C@@]4(c5ccc(OC)cc5N(C)[C@H]4[C@@](O)(C(=O)OC)[C@@H]1OC(=O)CCC(=O)O[C@H]1CC[C@H]4[C@@H]5CCC6=CC(=O)CC[C@@H]6[C@H]5CC[C@]14C)[C@@H]32
false (0)

// same read-out, input: CC(C)C[C@H](NC(=O)[C@@H](Cc1ccccc1)n1ccc(Nc2ccccc2)cc1=O)B(O)O
true (1)

// same read-out, input: CCc1ccc(Oc2c(-c3ccc(OCCc4cccc(C(F)(F)F)c4)cc3O)n[nH]c2C(F)(F)F)cc1
false (0)

From here, focus on the item given below.
Test call for this molecule, please: Cc1ccc(NC(=S)NNC(=S)Nc2ccc(C)cc2)cc1
false (0)

----------
- Tested on: NCI-H460 lung
- assay-name: NCI tumour cell line growth inhibition, 48 h
experimental-endpoint: TGI (µM)
Field: numeric (µM). Do not append units.

Record NC(N)=N/N=C/c1c(-c2ccc(Cl)c([N+](=O)[O-])c2)nc2sccn12 : what is its TGI with NCI-H460 lung?
3.3

Then there is this molecule:
Record CNC(=O)/C=C/C1=CN2C(=O)c3ccc(C)c(O)c3NC(OC)C2C1 (centres undefined) : what is its TGI with NCI-H460 lung?
1.03

----------
Below, each of the compounds is paired with its reported GI50 value.
- System: MOLT-4 leukemia
- assay-name: NCI tumour cell line growth inhibition, 48 h

Here is how some compounds turned out for GI50.
Record Nc1nc2ccc(CNc3ccc(C(=O)NC(CC(=O)O)C(=O)O)cc3)cc2c(=O)[nH]1 (stereo not given) : what is its GI50 with MOLT-4 leukemia?
16.3 µM

// same read-out, input: CC(C)n1cc(-c2ccc3c(c2)N(C)CC3)c2c(NS(=O)(=O)c3ccn(C)n3)ccnc21
65.7 µM

// same read-out, input: Cc1ccc(C2=NN(c3ccc(S(=O)(=O)NC(=O)NCc4ccccc4)cc3)C(c3ccc(N(C)C)cc3)C2)c(C)c1 (stereo not given)
3.65 µM

New cases:
Record CCCCCCCCCN=C(N)c1ccc(N2CCN(c3ccc(C(N)=NCCCCCCCCC)cc3)CC2)cc1 : what is its GI50 with MOLT-4 leukemia?
1.58 µM

// same read-out, input: N#CC1=C(N)N=C(N2CCOCC2)C(C#N)C12Nc1ccccc1S2 (stereo not given)
23.4 µM
